# studySystem: CYP3A4 (Homo sapiens)
# protocolText: Kinetics of BOMR and BR toward CYP 3A4 (FIG. 4)
# Type: biochemical
# conditionSet: human, CYP 3A4 enzyme; from FIG. 4 data
measuredQuantity: Km (µM)
Please give a number only; it is taken to be in µM.

Task: Find Km (CYP3A4 (Homo sapiens)) for the entry O=c1ccc2nc3ccc(OCc4ccccc4)cc3oc-2c1 [BR, Benzylresorufin, reference compound]
Output: 5.3

----------
This section presents molecules with their documented v (10 uM) values.
# studySystem: CYP 2B6 (Homo sapiens)
# Sequence (P20813 1-491): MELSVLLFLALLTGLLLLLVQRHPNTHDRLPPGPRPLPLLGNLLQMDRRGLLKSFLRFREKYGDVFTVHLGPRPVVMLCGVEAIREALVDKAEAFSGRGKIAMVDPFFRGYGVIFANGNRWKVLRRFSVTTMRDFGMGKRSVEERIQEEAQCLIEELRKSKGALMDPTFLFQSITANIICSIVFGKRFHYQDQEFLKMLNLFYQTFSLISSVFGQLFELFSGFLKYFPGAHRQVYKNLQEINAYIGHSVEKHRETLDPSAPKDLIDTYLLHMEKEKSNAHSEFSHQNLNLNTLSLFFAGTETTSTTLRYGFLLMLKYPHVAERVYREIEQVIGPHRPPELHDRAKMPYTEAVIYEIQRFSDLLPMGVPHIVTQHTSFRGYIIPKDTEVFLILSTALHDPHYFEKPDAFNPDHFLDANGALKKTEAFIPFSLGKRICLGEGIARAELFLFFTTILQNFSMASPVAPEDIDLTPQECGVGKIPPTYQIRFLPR
# protocolText: Kinetic properties of fluorogenic substrates with CYP 2B6
# Format: biochemical
# conditionSet: turnover rate at 10 uM substrate; — = too low to quantify
Answer in min⁻¹, number only, no unit symbol.

Would you please look over these solved cases?
{"molecule": "N#Cc1cc2ccc(OCOCc3ccccc3)cc2oc1=O", "studySystem": "CYP 2B6 (Homo sapiens)", "displayUnit": "min⁻¹", "v (10 uM)": 3.05}
{"molecule": "COCOc1ccc2c(C(F)(F)F)cc(=O)oc2c1", "studySystem": "CYP 2B6 (Homo sapiens)", "displayUnit": "min⁻¹", "v (10 uM)": 0.71}
{"molecule": "COc1ccc(COc2ccc3nc4ccc(=O)cc-4oc3c2)cc1", "studySystem": "CYP 2B6 (Homo sapiens)", "displayUnit": "min⁻¹", "v (10 uM)": 0.10}

Task: Need v (10 uM), item N#Cc1cc2ccc(OCc3ccccc3)cc2oc1=O [BCC, 7-Benzyloxy-3-cyanocoumarin, reference compound]
Output: 0.07

Task: Any idea what v (10 uM) was measured for O=c1ccc2nc3ccc(OCc4ccccc4)cc3oc-2c1 [BR, Benzylresorufin, reference compound] ?
Output: 0.42

Task: Give its v (10 uM) value. Item: "O=c1ccc2nc3ccc(OCOCc4ccccc4)cc3oc-2c1"
Output: 0.71

----------
A collection of molecules and their measured v (1.25 uM)
# studySystem: CYP 2B6 (Homo sapiens)
# protocolText: Kinetic properties of fluorogenic substrates with CYP 2B6
# Format: biochemical
# conditionSet: turnover rate at 1.25 uM substrate; — = too low to quantify

{"molecule": "N#Cc1cc2ccc(OCOCc3ccccc3)cc2oc1=O", "v (1.25 uM)": "0.38 min⁻¹"}
{"molecule": "N#Cc1cc2ccc(OCc3ccccc3)cc2oc1=O [BCC, 7-Benzyloxy-3-cyanocoumarin, reference compound]", "v (1.25 uM)": "0.04 min⁻¹"}
{"molecule": "COCOc1ccc2c(C(F)(F)F)cc(=O)oc2c1", "v (1.25 uM)": "0.54 min⁻¹"}

Task: # v (1.25 uM) lookup, item O=c1ccc2nc3ccc(OCc4ccccc4)cc3oc-2c1 [BR, Benzylresorufin, reference compound]
Output: 0.42 min⁻¹

Task: Look up v (1.25 uM): "O=c1ccc2nc3ccc(OCOCc4ccccc4)cc3oc-2c1"
Output: 0.28 min⁻¹

Task: What value of v (1.25 uM) has been recorded for this entry: "COc1ccc(COc2ccc3nc4ccc(=O)cc-4oc3c2)cc1"
Output: 0.08 min⁻¹

----------
# studySystem: UniProtKB P08684
# protocolText: in vitro
# conditionSet: pH 8, % inhibition, substrate BOMR, Condition A
measuredQuantity: inhibition at 20 min, 10 µM

{"compound": "COc1cccc2c1C(=O)c1c(O)c3c(c(O)c1C2=O)C[C@@](O)(C(=O)CO)C[C@@H]3O[C@H]1C[C@H](N)[C@H](O)[C@H](C)O1", "studySystem": "UniProtKB P08684", "measuredQuantity": "inhibition at 20 min, 10 µM", "result": "29%"}
{"compound": "NNC(=O)c1ccncc1", "studySystem": "UniProtKB P08684", "measuredQuantity": "inhibition at 20 min, 10 µM", "result": "-8%"}
{"compound": "C=CCOc1ccccc1OCC(O)CNC(C)C (centres unmarked)", "studySystem": "UniProtKB P08684", "measuredQuantity": "inhibition at 20 min, 10 µM", "result": "-5%"}
{"compound": "O=C1CN(/N=C/c2ccc([N+](=O)[O-])o2)C(=O)N1", "studySystem": "UniProtKB P08684", "measuredQuantity": "inhibition at 20 min, 10 µM", "result": "-19%"}

API: the following record is the query input.
Task: Look up inhibition at 20 min, 10 µM with UniProtKB P08684 for this compound: "O=C1NC(=O)C(c2ccccc2)(c2ccccc2)N1"
Output: -27%

----------
# studySystem: CYP3A4 (Homo sapiens, UniProt P08684)
# Sequence (P08684 whole entry): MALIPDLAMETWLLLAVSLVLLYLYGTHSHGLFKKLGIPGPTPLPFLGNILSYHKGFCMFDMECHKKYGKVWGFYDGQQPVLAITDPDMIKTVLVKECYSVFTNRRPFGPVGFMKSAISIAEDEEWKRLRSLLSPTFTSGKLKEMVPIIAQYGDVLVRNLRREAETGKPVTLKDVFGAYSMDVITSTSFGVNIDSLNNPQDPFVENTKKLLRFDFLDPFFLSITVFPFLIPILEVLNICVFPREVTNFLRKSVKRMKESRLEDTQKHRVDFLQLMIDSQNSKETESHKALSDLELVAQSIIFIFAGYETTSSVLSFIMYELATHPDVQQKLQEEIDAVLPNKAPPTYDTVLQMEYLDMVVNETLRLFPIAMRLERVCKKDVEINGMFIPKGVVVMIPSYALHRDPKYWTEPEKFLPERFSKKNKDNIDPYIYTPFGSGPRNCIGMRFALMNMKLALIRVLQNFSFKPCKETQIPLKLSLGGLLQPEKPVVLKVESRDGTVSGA
# protocolText: in vitro
# conditionSet: pH 8, % inhibition, substrate DBOMF, Condition A
Overview of recorded inhibition at 20 min, 10 µM for various molecules
Respond numerically; units are % and should not be typed.

{"molecule": "NNC(=O)c1ccncc1", "displayUnit": "%", "quantitativeReadout": -9}

Task: Which inhibition at 20 min, 10 µM value belongs to "COc1cccc2c1C(=O)c1c(O)c3c(c(O)c1C2=O)C[C@@](O)(C(=O)CO)C[C@@H]3O[C@H]1C[C@H](N)[C@H](O)[C@H](C)O1" ?
Output: 3

Task: What value of inhibition at 20 min, 10 µM has been recorded for this entry: "O=C1NC(=O)C(c2ccccc2)(c2ccccc2)N1"
Output: 21

Task: Item "O=C1CN(/N=C/c2ccc([N+](=O)[O-])o2)C(=O)N1" has what recorded inhibition at 20 min, 10 µM?
Output: -9

Task: So what's the measured inhibition at 20 min, 10 µM for this one? C=CCOc1ccccc1OCC(O)CNC(C)C (centres unmarked)
Output: 1

----------
# studySystem: CYP 2B6 (Homo sapiens)
# Sequence (P20813 1-491): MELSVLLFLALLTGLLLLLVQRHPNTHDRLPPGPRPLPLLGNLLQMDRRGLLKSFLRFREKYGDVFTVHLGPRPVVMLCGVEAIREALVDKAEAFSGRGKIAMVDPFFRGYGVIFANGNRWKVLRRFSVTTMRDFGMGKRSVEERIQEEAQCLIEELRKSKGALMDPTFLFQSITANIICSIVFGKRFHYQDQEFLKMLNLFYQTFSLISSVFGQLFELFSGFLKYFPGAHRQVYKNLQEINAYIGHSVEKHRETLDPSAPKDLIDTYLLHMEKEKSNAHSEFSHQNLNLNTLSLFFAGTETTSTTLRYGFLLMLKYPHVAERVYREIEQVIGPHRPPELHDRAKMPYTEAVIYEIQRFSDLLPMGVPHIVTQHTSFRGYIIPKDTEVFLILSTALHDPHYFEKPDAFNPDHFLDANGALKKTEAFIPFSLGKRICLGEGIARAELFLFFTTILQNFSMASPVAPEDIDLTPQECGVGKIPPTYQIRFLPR
# protocolText: Kinetic properties of fluorogenic substrates with CYP 2B6
# Assay type: biochemical
# conditionSet: — = too low to quantify
measuredQuantity: kcat

{"compound": "N#Cc1cc2ccc(OCc3ccccc3)cc2oc1=O [BCC, 7-Benzyloxy-3-cyanocoumarin, reference compound]", "kcat": "0.0017 s⁻¹"}
{"compound": "COc1ccc(COc2ccc3nc4ccc(=O)cc-4oc3c2)cc1 [MOBR, Paramethoxybenzylresorufin]", "kcat": "0.0067 s⁻¹"}
{"compound": "N#Cc1cc2ccc(OCOCc3ccccc3)cc2oc1=O [BOMCC, 7-Benzyloxymethyloxy-3-cyanocoumarin]", "kcat": "1.1 s⁻¹"}

# next compound below
Task: Returns the measured kcat for the input compound. Input: O=c1ccc2nc3ccc(OCOCc4ccccc4)cc3oc-2c1 [BOMR, Benzyloxymethylresorufin]
Output: 0.013 s⁻¹

----------
# studySystem: CYP3A4 (Homo sapiens, UniProt P08684)
# protocolText: in vitro
# conditionSet: pH 8
measuredQuantity: inhibition at 1 h, 10 µM

Task: Requested field: inhibition at 1 h, 10 µM. Item: Clc1ccc(COC(Cn2ccnc2)c2ccc(Cl)cc2Cl)c(Cl)c1 (stereo not shown)
Output: ~100%
